assay: chemical genetic growth profiling, strain panel (AID 1159580);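 also: tested at 20 µM; growth read once vehicle control cultures reached saturation at 30 °C; 1 = growth at the plate median or of vehicle wells; lower values mean less growth of the strain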; details: S. cerevisiae deletion strains, growth OD, locus YEL003W, strain gim4
Screen size: about 5,500 compounds; about 2,000 (36%) were called active. Another 18% or so got no clear call; they are omitted. Rule as the data show it: active = normalized growth mostly below about 0.91 (no sharp cut-off); inconclusive = no clear call, values can overlap the other calls; inactive = mostly above about 0.92. The list shows a part of the results.
Just give me one of these, please: active, inactive

Ask | Please indicate how the test categorized CC(C)N1C(=O)c2ccccc2NS1(=O)=O .
Reply | inactive

Ask | Which result was noted for this molecule in the test: O=C(/C=C/c1ccc(O)cc1)c1ccc(O)cc1O
Reply | inactive

Ask | Each molecule tested received a call. Report the one for CC(=O)OC[C@@]1(O)C[C@@]23CCC4c5ccoc5CC[C@]4(C)C2CC[C@@H]1C3 (stereo not given in full) .
Reply | inactive

Ask | Hi team, can someone confirm the assay call for O=C(O)c1cc(=O)c2ccccc2[nH]1 ?
Reply | inactive

Ask | What did the test return for OC[C@H]1O[C@@H](Oc2ccc(O)cc2)[C@H](O)[C@@H](O)[C@@H]1O ?
Reply | inactive

Ask | For O=C(/C=C/c1ccccc1)c1ccc(O[C@@H]2O[C@H](CO)[C@@H](O)[C@H](O)[C@H]2O)cc1O , what call appears in the results of this test?
Reply | inactive

Ask | Dear colleague, could you share the recorded outcome for O=C(/C=C/c1ccc(O)cc1)c1ccccc1O when you have a moment?
Reply | active

Ask | Identify the outcome logged in this assay for the molecule shown: CC(C)C1CCC(C(=O)N[C@@H](Cc2ccccc2)C(=O)O)CC1 (stereo not given in full)
Reply | inactive

Ask | Assay result, entry C=C[C@H]1CN2CC[C@H]1C[C@H]2[C@H](O)c1ccnc2ccccc12 — outcome?
Reply | inactive

Ask | Dear colleague, could you share the recorded outcome for O=C(O)C1=C(CSc2nnnn2CS(=O)(=O)O)CS[C@@H]2C(NC(=O)[C@H](O)c3ccccc3)C(=O)N12 (stereo not given in full) when you have a moment?
Reply | inactive

---

assay: chemical genetic growth profiling, strain panel (AID 1159580);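 also: tested at 20 µM; growth read once vehicle control cultures reached saturation at 30 °C; 1 = growth at the plate median or of vehicle wells; lower values mean less growth of the strain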; conditions: S. cerevisiae deletion strains, growth OD, locus YGR135W, strain pre9
In all, about 5,500 compounds went through this assay and about 2,000 (36%) were called active. Roughly 18% stayed inconclusive and do not appear here. Cut-off read from the data, not from the text of the source: active = normalized growth mostly below about 0.91 (no sharp cut-off); inconclusive = no clear call, values can overlap the other calls; inactive = mostly above about 0.92. This is one part of the list.
Respond using exactly one of the listed classes: active, inactive

Ask | Called result for COC(=O)c1cc(OC)c(=O)c2c(OC)c(OC)ccc2c1
Reply | inactive

Ask | Field: outcome | Entry: CON
Reply | inactive

Ask | Record lookup: outcome of this test for O=C1c2cccc(O)c2C(=O)c2c(O)cccc21 ?
Reply | active

Ask | I would be grateful if you could indicate the recorded call for O=C(O)c1cc(=O)c2ccccc2[nH]1 .
Reply | inactive

Ask | Check the results log: what was the call for N[C@@H](C(=O)N[C@@H]1C(=O)N2C(C(=O)O)=C(Cl)CS[C@H]12)c1ccccc1 ?
Reply | inactive

Ask | // param item: CCCCCC/C=C\CCCCCCCc1cccc(O)c1C(=O)O ; yields the recorded call
Reply | inactive

Ask | Write down the call the test reported for this compound. Item: C[C@H]1C(=O)CCC2[C@]3(C)CC[C@@]4(C)C5CC(C)(C)CC[C@]5(C)CC[C@]4(C)C3CC[C@@]21C (stereo not given in full)
Reply | inactive

Ask | // param item: CC(NC(C)(C)C)C(=O)c1cccc(Cl)c1 (stereo not given) ; yields the recorded call
Reply | inactive

Ask | Recorded test outcome, item COc1cc(Cc2cnc(N)nc2N)cc(OC)c1OC
Reply | inactive

Ask | GET /call?item= O=C(N[C@@H](CO)[C@H](O)c1ccc([N+](=O)[O-])cc1)C(Cl)Cl returns the recorded outcome of this test.
Reply | inactive

Ask | I'd appreciate the recorded outcome for O=c1c(O)cccc2cc(O)c(O)c(O)c12 from this test.
Reply | active

Ask | For this compound, state the assay outcome: O=C(Nc1ccc([N+](=O)[O-])cc1Cl)c1cc(Cl)ccc1O
Reply | inactive

Ask | Look up the recorded call for Cc1cc(O)c2c(c1)C(=O)c1cccc(O)c1C2=O in this test.
Reply | inactive

Ask | Name the outcome recorded for CN1CCCCC1c1ccc(-c2cccnc2)nc1 (stereo not given) in the assay.
Reply | inactive

Ask | GET /call?item= O=c1c(O)c(-c2ccccc2)oc2ccccc12 returns the recorded outcome of this test.
Reply | inactive

Ask | Please indicate how the test categorized O=C(O)CCC(=O)OC[C@@H](NC(=O)C(Cl)Cl)[C@H](O)c1ccc([N+](=O)[O-])cc1 .
Reply | inactive

Ask | For C[N+]12CCC(CC1)C(OC(=O)C(O)(c1ccccc1)c1ccccc1)C2 (stereo not given) , which call appears in the assay record?
Reply | inactive

Ask | I would be grateful if you could indicate the recorded call for CNC(=O)N(C)c1nnc(C(C)(C)C)s1 .
Reply | inactive

Ask | Field: outcome | Entry: CC(C)OC(=O)Nc1cccc(Cl)c1
Reply | inactive

Ask | Check the results log: what was the call for COc1ccc([C@@H](C)C(=O)c2ccc(O)cc2O)cc1 ?
Reply | inactive

Ask | # lookup: test call for O[C@H]1[C@H](O)[C@@H](O)C2OC[C@H]1O2
Reply | inactive

Ask | What did this assay record as the result for O=C(O)c1cc(O)c2c(c1)C(=O)c1cc(O)cc(O)c1C2=O ?
Reply | inactive

Ask | Tell me the assay call for NC(Cc1ccc(Cl)cc1)C(=O)O (stereo not given) please.
Reply | inactive

Ask | Test call, this compound: CN1C(=O)CC[C@H]1c1cccnc1
Reply | inactive

Ask | Called result for O=c1c(O)c(-c2ccccc2)oc2cc(O)ccc12
Reply | active

---

assay: chemical genetic growth profiling, strain panel (AID 1159580);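 also: tested at 20 µM; growth read once vehicle control cultures reached saturation at 30 °C; 1 = growth at the plate median or of vehicle wells; lower values mean less growth of the strain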; settings: S. cerevisiae deletion strains, growth OD, locus YLR418C, strain cdc73, hits give low values
The campaign covered roughly 5,500 compounds. About 2,000 (36%) were called active. Roughly 18% stayed inconclusive and do not appear here. The list shows a part of the results.
QUANTITY_KIND: normalized growth

Ask | Look at this molecule and give its reported normalized growth. CC(C)=CCC/C(C)=C/CO
Reply | 0.975 (inactive)

Ask | Report normalized growth for CC(C)c1cc2c(c(O)c1O)[C@@]1(C(=O)O)CCCC(C)(C)C1CC2 (stereo partly specified) please.
Reply | 0.642 (active)

Ask | So what does the record say about normalized growth for CC(C)[C@@H]1CC[C@@H](C)CC1=O ?
Reply | 1.01 (inactive)

Ask | normalized growth lookup needed for CNC(=O)Oc1ccccc1OC(C)C , thanks.
Reply | 0.97 (inactive)

Ask | Reported normalized growth, molecule CCCN(CCC)c1c([N+](=O)[O-])cc(C(F)(F)F)cc1[N+](=O)[O-] : ____
Reply | 1 (inactive)

Ask | normalized growth lookup needed for COc1ccc(NS(=O)(=O)c2ccc(N)cc2)nn1 , thanks.
Reply | 1 (inactive)

Ask | If you can, please state the reported normalized growth value of CNC(C)(C)Cc1ccccc1 .
Reply | 1.01 (inactive)

Ask | Fill blank: measured normalized growth of the molecule COc1cc(O)c2c(c1)C(=O)c1cc(C)cc(O)c1C2=O is ____.
Reply | 1 (inactive)

Ask | Name the recorded normalized growth for CC(=O)CCCCn1c(=O)c2c(ncn2C)n(C)c1=O .
Reply | 0.982 (inactive)

Ask | Given the entry COc1ccc([C@@H](C)C(=O)c2ccc(O)cc2O)cc1 , report its measured normalized growth.
Reply | 0.796 (active)

Ask | // query normalized growth value for entry C/C(=C\CO)CC[C@H](C)CCC[C@H](C)CCCC(C)C
Reply | 1.12 (inactive)

Ask | Item Cc1c(NC(C)C)c(=O)n(-c2ccccc2)n1C has what recorded normalized growth?
Reply | 0.957 (inactive)

Ask | What value of measured normalized growth is listed for ClC1C(Cl)C(Cl)C(Cl)C(Cl)C1Cl (stereo unspecified) ?
Reply | 0.843 (inactive)

Ask | Data request, read-out normalized growth, for Cn1c(=O)c2c(ncn2CCCl)n(C)c1=O
Reply | 0.992 (inactive)

Ask | Need normalized growth of O=C(O)CCC(=O)OC[C@@H](NC(=O)C(Cl)Cl)[C@H](O)c1ccc([N+](=O)[O-])cc1 , thanks.
Reply | 0.974 (inactive)

Ask | Fill blank: measured normalized growth of the molecule Cn1c(=O)c2c(ncn2CCO)n(C)c1=O is ____.
Reply | 0.985 (inactive)

Ask | Entry under review: COC(=O)c1cc(OC)c(=O)c2c(OC)c(OC)ccc2c1 . Reported normalized growth?
Reply | 1.07 (inactive)

Ask | // normalized growth lookup, key: CCCC(=O)Nc1ccc(OCC(O)CNC(C)C)c(C(C)=O)c1 (stereo unspecified)
Reply | 1.05 (inactive)

Ask | Query (molecule): CN1CCC[C@H]1c1cccnc1 ; field requested: normalized growth
Reply | 1.02 (inactive)

Ask | Item O=C(/C=C/c1ccccc1)c1c(O)cc(O)cc1O has what recorded normalized growth?
Reply | 0.992 (inactive)

Ask | Return reported normalized growth; argument: O=c1c(O)c(-c2ccccc2)oc2cc(O)ccc12
Reply | 0.357 (active)

Ask | Looking for the measured normalized growth of CCC[C@@H]1C[C@@H](C(=O)N[C@H]([C@H]2O[C@H](SC)[C@H](O)[C@@H](O)[C@H]2O)[C@H](C)O)N(C)C1 , can you help?
Reply | 0.975 (inactive)

Ask | What measured normalized growth goes with O=C(O)c1cc(=O)c2ccccc2[nH]1 ?
Reply | 1.05 (inactive)

Ask | Quick one: normalized growth of Cn1cnc2c1c(=O)[nH]c(=O)n2C ?
Reply | 0.99 (inactive)

Ask | Field request: normalized growth | item: Cn1c(=O)[nH]c2nc[nH]c2c1=O
Reply | 1.01 (inactive)

Ask | Any idea what normalized growth was measured for CC(C)Cn1c(=O)n(C)c(=O)c2[nH]cnc21 ?
Reply | 1.02 (inactive)

Ask | If you can, please state the reported normalized growth value of CC(NC(C)(C)C)C(=O)c1cccc(Cl)c1 (stereo unspecified) .
Reply | 1.03 (inactive)

Ask | Return reported normalized growth; argument: CC(=O)O[C@@H]1C2CC[C@@H]3C1(C[C@@H](O)[C@@]1(O)[C@@H](C[C@H](O)C1(C)C)[C@]3(C)O)C[C@@]2(C)O (stereo partly specified)
Reply | 1.01 (inactive)

Ask | normalized growth for COc1ccc(/C=C/c2cc(O)cc(O[C@@H]3O[C@H](CO)[C@@H](O)[C@H](O)[C@H]3O)c2)cc1 ?
Reply | 0.984 (inactive)

Ask | Which measured normalized growth value corresponds to CC1(C)CC23C(=O)CCC(O)C2(C)CCC13 (stereo unspecified) ?
Reply | 1.05 (inactive)

Ask | // returns reported normalized growth for input O=C(Nc1ccc([N+](=O)[O-])cc1Cl)c1cc(Cl)ccc1O
Reply | 0.793 (active)

Ask | Need normalized growth of COc1cc2c(cc1OC)C(C)NCC2 (stereo unspecified) , thanks.
Reply | 0.98 (inactive)

Ask | # input molecule: CC(=O)OCC1=C(C(=O)O)N2C(=O)[C@@H](NC(=O)CSc3ccncc3)[C@H]2SC1 ; wanted: its normalized growth
Reply | 1.05 (inactive)

Ask | Could you tell me which normalized growth is on file for COC(=O)C[C@H]1C(C)(C)[C@H](O)[C@@H]2CC3=C4CC(O)O[C@@H](c5ccoc5)[C@]4(C)CCC3[C@@]1(C)C2=O (stereo partly specified) ?
Reply | 0.975 (inactive)

Ask | Suppose we examine the molecule CC(=O)NS(=O)(=O)c1ccc(N)cc1 ; what normalized growth value has been reported?
Reply | 0.968 (inactive)

Ask | Return reported normalized growth; argument: CC(C)OC(=O)Nc1cccc(Cl)c1
Reply | 0.828 (active)

Ask | Given CC1=C(C(=O)O)N2C(=O)[C@@H](NC(=O)[C@@H](N)c3ccc(O)cc3)[C@H]2SC1 , state its recorded normalized growth.
Reply | 1.02 (inactive)

Ask | Can you look up the measured normalized growth of COc1cc2cccc(OC)c(=O)c2c(OC)c1OC for me?
Reply | 0.945 (inactive)

Ask | What normalized growth value was documented for this molecule, O=C1c2ccccc2C(=O)c2ccccc21 ?
Reply | 1.01 (inactive)

Ask | Entry Cn1c(=O)[nH]c2ncn(C)c2c1=O has what normalized growth?
Reply | 1 (inactive)

Ask | GET /values?readout=normalized growth&item= O=C(/C=C/c1ccccc1)c1ccc(O[C@@H]2O[C@H](CO)[C@@H](O)[C@H](O)[C@H]2O)cc1O
Reply | 0.739 (active)

Ask | If you can, please state the reported normalized growth value of C=C(C)C1Cc2c(ccc3c(=O)c4c(oc23)COc2cc(OC)c(OC)cc2-4)O1 (stereo unspecified) .
Reply | 1.05 (inactive)

Ask | What does the data say about its normalized growth? Entry: CCCc1ncc(C[n+]2ccccc2C)c(N)n1
Reply | 0.977 (inactive)

Ask | For the molecule NC(Cc1ccc(Cl)cc1)C(=O)O (stereo unspecified) , what normalized growth is on record?
Reply | 1.04 (inactive)

Ask | If you can, please state the reported normalized growth value of COC(=O)C[C@H]1C(C)(C)[C@@H](OC(C)=O)[C@@H]2CC3=C4CC(=O)O[C@@H](c5ccoc5)[C@]4(C)CCC3[C@@]1(C)C2=O (stereo partly specified) .
Reply | 1.04 (inactive)

Ask | Using the record for CN(C)CCC[C@@]1(c2ccc(F)cc2)OCc2cc(C#N)ccc21 , report its normalized growth.
Reply | 1 (inactive)
